Molecular target: T1, hu-IL-2Rγc subunit (human), P31785
T1 chain: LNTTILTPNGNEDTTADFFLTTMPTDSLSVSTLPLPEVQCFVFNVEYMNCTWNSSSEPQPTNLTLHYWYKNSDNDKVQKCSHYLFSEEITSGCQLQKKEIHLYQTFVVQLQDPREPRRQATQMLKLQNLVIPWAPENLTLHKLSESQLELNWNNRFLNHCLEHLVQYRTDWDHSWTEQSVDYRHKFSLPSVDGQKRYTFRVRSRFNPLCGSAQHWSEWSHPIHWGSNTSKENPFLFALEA
Recorded endpoint: IC50

# Binder, IC50
measured = [
    ("IECEEWRGVELCWQ (modifications not checked) [SEQ ID NO 638]", "< 100 µM"),
    ("IVCEEYNGVELCWVETSVKP (modifications not checked) [SEQ ID NO 700]", "< 100 µM"),
    ("DWRRSVVECQDWYGVELCWQ (modifications not checked) [SEQ ID NO 656]", "< 100 µM"),
    ("INCQTWNGVELCWVDEGLYQ (modifications not checked) [SEQ ID NO 685]", "< 100 µM"),
    ("RPQIECQEWQGVELCWTREE (modifications not checked) [SEQ ID NO 678]", "< 100 µM"),
    ("HSTVICQDWDGVELCWIEND (modifications not checked) [SEQ ID NO 707]", "< 100 µM"),
]

Okay, now this binder:
Q: // returns reported IC50 for input TWNMSELECQDWNGVEICWH (modifications not checked) [SEQ ID NO 668]
A: < 100 µM
